- test name: plasmodial surface anion channel blockers, osmotic lysis – cell-based, P. falciparum Indochina, OD700, 18 h, primary screen (AID 1157)
- setup conditions: P. falciparum Indochina infected erythrocytes, osmotic lysis OD700, 18 h; higher = more signal, called active from +8 up or from −8 down
measured property: z-score
Numbers only.

// below: answered compounds
>>> reported_result("COCCOC(=O)N1C(=O)[C@@]2(c3cc(C#CC4=CCCCC4)ccc31)[C@H](c1ccccc1OCCO)N1[C@H](c3ccccc3)[C@H](c3ccccc3)OC(=O)[C@H]1[C@@H]2C(=O)N1CCN(c2ncccn2)CC1")
-0.492
>>> reported_result("C#CCN(Cc1ccccc1Br)[C@H](/C=C/c1ccccc1)[C@@H](O)Cc1ccccc1")
0.132
>>> reported_result("C=CCNC(=O)[C@@H]1[C@H]2C(=O)O[C@H](c3ccccc3)[C@H](c3ccccc3)N2[C@H](c2ccccc2OCCO)[C@@]12C(=O)N(C(=O)OCCOC)c1ccc(C#CC3(O)CCCCCC3)cc12")
0.996
>>> reported_result("CCOC(=O)C1=C[C@@H](C(C)(C)C)N(S(=O)(=O)c2ccc(C)cc2)[C@H]1c1cccc2ccccc12")
0.193
>>> reported_result("CS(=O)(=O)CCOC(=O)C1=CC(CCCO)=CC(c2ccc(CN3CCCC3)cc2)N(Cc2sc3ccccc3c2Cl)C=C1C(=O)OCCS(C)(=O)=O (stereo not given)")
0.428

Hey, can you go through the list below and give me z-score for every item?
1. NC(=O)[C@@]1(Cc2ccccc2)COC(c2ccc(OCCCO)cc2)=N1
2. CCOC(=O)C[C@H]1[C@H](OC(=O)Cc2ccc3c(c2)OCO3)[C@@H](NC(=O)c2ccc3ccccc3n2)c2cc(OCCCO)ccc2N1C(=O)c1ccccc1
3. O=C1C[C@]2(c3ccc([N+](=O)[O-])cc3)C(=O)N(C3CC3)c3cc(CO)ccc3[C@H]2N1CC12CC3CC(CC(C3)C1)C2

1: -0.0697; 2: 0.308; 3: 0.255

Quick request: z-score for each listed item, please.
1. C[N+](C)(C)CCCC[C@@H]1NC(=O)[C@@H]2C[C@H](C(=O)NCCCCCCN)[C@H](c3cccc(OCCO)c3)N2C1=O
2. C=CCC(OC(C)=O)[C@@H]1[C@@H](N(Cc2cc3ccccc3o2)C(=O)Cc2ccc(F)cc2)c2cc(OCCCO)ccc2N1C(=O)Cc1ccc2ccccc2c1 (stereo not given in full)
3. CCOC(=O)C1=C[C@@H](C(C)C)N(S(=O)(=O)c2ccc(C)cc2)[C@H]1c1ccc(C(F)(F)F)cc1
4. CCCCC(=C=CC[C@H](O)c1ccc(OCCO)cc1)CCO
5. COc1cc2c(cc1O)C(c1ccc(CN3CCCC3)cc1)N(Cc1cc3c(cc1Br)OCO3)CC2 (stereo not given)
6. C=CCOC(=O)[C@@]1(Cc2ccccc2)C[C@H]2CO[C@H](c3ccc(OC)cc3)N2C1=O
7. Cc1ccc(F)cc1S(=O)(=O)N[C@@H]1CCN(Cc2ccc(Br)cc2)C1
8. C=CCC(OC(C)=O)[C@@H]1[C@@H](N(Cc2cccc3ccccc23)C(=O)Cc2ccc(F)cc2)c2cc(OCCCO)ccc2N1C(=O)c1ccc2ccccc2c1 (stereo not given in full)

1. 0.229
2. 0.184
3. 0.0209
4. 0.627
5. 0.526
6. 0.0894
7. 0.55
8. 0.484

// each listed compound needs a value for z-score
1. [N-]=[N+]=NCc1ccccc1C[C@@]1(C(N)=O)N=C(c2ccc(OCCCO)cc2)O[C@@H]1c1ccccc1
2. COc1cc2c(cc1O)C(C1CC1)N(Cc1cccc(OC(F)(F)F)c1)CC2 (stereo not given)
3. CN(C)c1ccc(C(O)C2C=CC3C(=O)NC(=O)C3N2Nc2ccccn2)cc1 (stereo not given)

1: 2.58; 2: 0.032; 3: 0.408

Would you be so kind as to report z-score for each listed record?
1. O[C@@H](Cc1ccccc1)[C@@H](/C=C/C1CC1)N(CC#Cc1ccccc1)Cc1ccccc1Br
2. CC1CC/C=C\[C@H]2OC34C=CCN(c5ccc6ccccc6c5)C(=O)[C@H]3N(CCCO)C(=O)[C@@H]4C2C(=O)O1 (stereo not given in full)
3. COC(=O)[C@@]1(Cc2ccc(F)cc2)[C@H]2c3cc(C(=O)N4CCCC4)n(CCc4c[nH]c5ccccc45)c3C[C@H]2CN1C(=O)c1ccccc1
4. NCCCCCNC(=O)[C@@H]1C[C@@H]2C(=O)N[C@@H](CCCCN)C(=O)N2[C@@H]1c1ccc(O)cc1

[0.475, 0.357, 1.06, 0.937]

I'm hoping you can list z-score for every compound here, please.
1. CCCC1(C(=O)OC)C=C2C(=C(C)C(=O)C2C)CN1 (stereo not given)
2. C#CCN([C@@H](Cc1ccccc1)C(=O)OC)[C@@H](/C=C/C1CC1)[C@H](O)Cc1ccccc1
3. C=CCOC(=O)[C@@H]1[C@H]2C(=O)O[C@H](c3ccccc3)[C@H](c3ccccc3)N2[C@H](c2ccc(OCCOC(=O)[C@@H]3C[C@@H]4C(=O)N[C@@H](CCCC[N+](C)(C)C)C(=O)N4[C@@H]3c3ccc(O)cc3)cc2)[C@@]12C(=O)Nc1ccc(I)cc12
4. CC(C)N1CC=CC23O[C@@H]4C=CCCOC(=O)C4[C@H]2C(=O)N(CCCO)[C@@H]3C1=O (stereo not given in full)

1. 0.274
2. -0.307
3. 0.0802
4. -0.646

Record z-score per entry; entries follow.
1. CCCCC=C[C@@H](NC(=O)OCc1ccccc1Cl)c1ccccc1
2. COCCCNC(=O)[C@@]1(CCC(=O)OC(C)(C)C)N=C(c2ccc(OCCCO)cc2)O[C@H]1c1ccccc1N=[N+]=[N-]
3. Cc1ccc(S[C@]2(C(=O)NCCN3CCOCC3)CC(=O)N(Cc3ccccc3Cl)[C@@H]2c2ccc(CO)cc2I)cc1

[0.887, 2.43, 0.4]
